Target: Potassium-transporting ATPase (Sus scrofa) (UniProt P18434+P19156)
Assay: Inhibition of procine gastric H+,K+-ATPase at 100 uM in vitro.
Type: tissue-based
Details: Stomach

[
  {
    "compound": "CO[C@H]1C[C@@H]2CC(=O)c3ccccc3[C@]23CC[C@@]1(C)C3",
    "inhibition": "42%"
  },
  {
    "compound": "COCO[C@H]1C[C@@H]2CC(=O)C3[C@@H](C#N)CCC[C@]3(C)[C@]23CC[C@@]1(C)C3 (stereo partly drawn)",
    "inhibition": "17%"
  },
  {
    "compound": "CC1=CCC(CC(O)c2ccccc2I)C(=O)CC1 (stereo not drawn)",
    "inhibition": "72%"
  }
]
